Entries and their kon
Assayed target: T1, recombinant human Tau-412 protein (human, UniProt P10636-7 1-412)
T1 construct: Analyte of the SPR study; also called human tau (1N4R, 412 amino acids)
T1 sequence (P10636 other isoform, or with tags, fused parts or gaps limits assumed): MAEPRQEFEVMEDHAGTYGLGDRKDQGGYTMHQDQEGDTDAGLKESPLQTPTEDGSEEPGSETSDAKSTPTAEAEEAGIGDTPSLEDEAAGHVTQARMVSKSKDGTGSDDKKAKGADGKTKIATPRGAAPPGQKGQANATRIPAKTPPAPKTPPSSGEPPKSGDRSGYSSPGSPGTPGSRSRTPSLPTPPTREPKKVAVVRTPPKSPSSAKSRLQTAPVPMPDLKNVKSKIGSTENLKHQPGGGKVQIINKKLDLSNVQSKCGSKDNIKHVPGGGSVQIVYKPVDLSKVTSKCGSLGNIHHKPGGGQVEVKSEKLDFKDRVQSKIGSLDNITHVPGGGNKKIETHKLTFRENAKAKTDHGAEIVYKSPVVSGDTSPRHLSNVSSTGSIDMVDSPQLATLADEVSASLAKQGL
Test name: SPR Biacore T200, mAb captured on Protein A, Tau-412 analyte, 1-to-1 model, chip A11/1
State the answer as a number, implicitly in M⁻¹ s⁻¹.

Look over these answered cases.
{"Binder": "chimeric HJ8.5 monoclonal antibody (antibody, V domains shown, also called chimera; chimeric antibody) VH: EVKVEESGGGLVQPGGSMKLSCVVSGFTFSNYWVNWVRQSPEKGLEWVAQIRLKSDNYATHYEESVKGRFTISRDDSKSSVYLQMNNLRAEDSGIYYCTNWEDYWGQGTTLTVSS VL: DIVLTQSPASLAVSLGQRATISCRASQSVSTSRYSYIHWYQQKPGQPPKLLIKYASNLESGVPARFSGSGSGTDFTLNIHPLEEEDAATYYCHHSWEIPLTFGAGTKLELK", "Unit symbol": "M⁻¹ s⁻¹", "Reported result": 718000}
{"Binder": "VH2/VK2 humanized anti-tau antibody (antibody, human IgG4 S228P, kappa, V domains shown, Humanized variant of HJ8.5) VH: EVKVVESGGGLVQPGGSLKLSCVVSGFTFSNYWVNWVRQAPGKGLEWVAQIRLKSDNYATHYEESVKGRFTISRDDSKSSVYLQMNSLRAEDTGIYYCTNWEDYWGQGTTVTVSS VL: DIVLTQSPDSLAVSLGERATISCRASQSVSTSRYSYIHWYQQKPGQPPKLLIKYASNLESGVPSRFSGSGSGTDFTLNIHPLEPEDFATYYCHHSWEIPLTFGQGTKLEIKR", "Unit symbol": "M⁻¹ s⁻¹", "Reported result": 262000}
{"Binder": "VH1/VK2 humanized anti-tau antibody (C2N-8E12) (antibody, human IgG4 S228P, kappa, V domains shown, Humanized recombinant IgG4 with S241P hinge mutation, human kappa light chain; also called C2N-8EI2) VH: EVKVVESGGGLVQPGGSMKLSCVVSGFTFSNYWVNWVRQAPGKGLEWVAQIRLKSDNYATHYEESVKGRFTISRDDSKSSVYLQMNNLRAEDSGIYYCTNWEDYWGQGTTVTVSS VL: DIVLTQSPDSLAVSLGERATISCRASQSVSTSRYSYIHWYQQKPGQPPKLLIKYASNLESGVPSRFSGSGSGTDFTLNIHPLEPEDFATYYCHHSWEIPLTFGQGTKLEIKR", "Unit symbol": "M⁻¹ s⁻¹", "Reported result": 280000}

Prompt: Identify measured kon associated with VH3/VK2 humanized anti-tau antibody (antibody, human IgG4 S228P, kappa, V domains shown, Humanized variant of HJ8.5) VH: EVQVVESGGGLVQPGGSLKLSCVVSGFTFSNYWVNWVRQAPGKGLEWVAQIRLKSDNYATHYEESVKGRFTISRDDSKNSVYLQMNSLRAEDTAIYYCTNWEDYWGQGTTVTVSS VL: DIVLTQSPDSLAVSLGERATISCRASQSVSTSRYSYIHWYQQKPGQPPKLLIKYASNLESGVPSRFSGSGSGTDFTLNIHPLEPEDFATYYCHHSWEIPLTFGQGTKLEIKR
Response: 262000
